// data source = ChEMBL document CHEMBL4043123

- Assay method text: Competitive inhibition of almond beta-glucosidase pre-incubated for 1 hr followed by p-nitrophenyl-beta-D-glucopyranoside, substrate addition by fluorescence detection based assay
- Set-up: species or system Prunus dulcis
pKi: −log10 of the molar value.

| Molecule | pKi |
| --- | --- |
| OCC1(CO)NC[C@H](F)[C@H]1O | 6.84 |

* * *

Catalogue of IC50 values
- Assay method text: Inhibition of rice alpha-glucosidase pre-incubated for 1 hr followed by p-nitrophenyl-alpha-D-glucopyranoside substrate addition by fluorescence detection based assay
- Set-up: species or system Oryza sativa
Property measured: IC50 (µM)

| Compound | Property measured | Recorded measurement |
| --- | --- | --- |
| OCCN1C[C@H](O)[C@@H](O)[C@H](O)[C@H]1CO [MIGLITOL] | IC50 | 0.05 |
| OCC1(CO)NC[C@H](F)[C@H]1O | IC50 | 463 |
